Test system: HCT116
TEST_NAME: cell viability (CellTiter-Glo) relative to plate median (fraction of plate median); higher = more viable cells
ASSAY_CONDITIONS: 5 µM; treatment time 24 h; reporter: TCF4/Wnt

MOLECULE: Cc1ccc(S(=O)(=O)NC(=O)NN2CC3CCCC3C2)cc1 (centres undefined)
cell viability: 0.999
--
MOLECULE: CC1(C)O[C@@H]2[C@@H](CO[C@@]3(COS(N)(=O)=O)OC(C)(C)O[C@@H]23)O1
cell viability: 1.04
--
MOLECULE: COC(=O)[C@@H]1OC(=O)[C@H]2O[C@@]23[C@@]1(C)CCC1[C@@]2(C)CCC(=O)C(C)(C)C2C[C@@H](OC(C)=O)[C@]13C (some centres undefined)
cell viability: 1.1
--
MOLECULE: CCC(=O)OCC(=O)[C@@]1(OC(=O)CC)[C@@H](C)C[C@H]2[C@@H]3CCC4=CC(=O)C=C[C@]4(C)[C@@]3(F)[C@@H](O)C[C@@]21C
cell viability: 1.03

----------
System: HCT116
TEST_NAME: cell viability (CellTiter-Glo) relative to plate median (fraction of plate median); higher = more viable cells
ASSAY_CONDITIONS: 5 µM; treatment time 24 h; reporter: TCF4/Wnt

MOLECULE: OC1(c2ccc(Cl)c(C(F)(F)F)c2)CCN(CCCC(c2ccc(F)cc2)c2ccc(F)cc2)CC1
MEASUREMENT_TARGET: HCT116
cell viability: 1.08
--
MOLECULE: CCCCCCc1ccc(O)cc1O
MEASUREMENT_TARGET: HCT116
cell viability: 1.14
--
MOLECULE: C[N+]1(C)C[C@H](O)C[C@H]1C(=O)[O-]
MEASUREMENT_TARGET: HCT116
cell viability: 0.985
--
MOLECULE: CCN(CC)CCNC(=O)c1cc(S(C)(=O)=O)ccc1OC
MEASUREMENT_TARGET: HCT116
cell viability: 1.02
--
MOLECULE: CC(C(=O)O)c1cccc(C(=O)c2ccccc2)c1 (stereo unspecified)
MEASUREMENT_TARGET: HCT116
cell viability: 0.931
--
MOLECULE: CCCCNc1ccc(C(=O)OCCN(C)C)cc1
MEASUREMENT_TARGET: HCT116
cell viability: 1.12
--
MOLECULE: CC(=O)OCC1=C(C(=O)O)N2C(=O)[C@@H](NC(=O)CSc3ccncc3)[C@H]2SC1
MEASUREMENT_TARGET: HCT116
cell viability: 1.06
--
MOLECULE: COc1ccc(-c2oc3cc(OC)c(OC)c(OC)c3c(=O)c2OC)cc1
MEASUREMENT_TARGET: HCT116
cell viability: 0.918
--
MOLECULE: Cc1ccnc(NS(=O)(=O)c2ccc(N)cc2)n1
MEASUREMENT_TARGET: HCT116
cell viability: 0.974
--
MOLECULE: O=C(c1c[nH]c2ccccc12)C(O)CO (stereo unspecified) [1-(3-Indolyl)-2,3-dihydroxypropan-1-one]
MEASUREMENT_TARGET: HCT116
cell viability: 1.02
--
MOLECULE: Cc1ccc(N(CC2=NCCN2)c2cccc(O)c2)cc1
MEASUREMENT_TARGET: HCT116
cell viability: 0.992

----------
Test system: SW480
TEST_NAME: TCF/Wnt firefly luciferase reporter signal relative to plate median (fraction of plate median); higher = higher Wnt reporter signal
ASSAY_CONDITIONS: 5 µM; treatment time 24 h; reporter: 7TFP
Kind request: treat 1 as inclusive, so TCF/Wnt firefly luciferase reporter signal at 1 or higher is 1, anything lower is -1.

MOLECULE: COc1cc(C)c2c(c1C=O)Oc1c(c(C)c(O)c3c1C(O)OC3=O)OC2=O (centres undefined)
MEASUREMENT_TARGET: SW480
GROUP_LABEL: -1

MOLECULE: O=c1c(-c2cc(O)c(O)c(O)c2)coc2cc(O)c(O)c(O)c12
MEASUREMENT_TARGET: SW480
GROUP_LABEL: -1

MOLECULE: O=C1OC(c2ccc(O)cc2)(c2ccc(O)cc2)c2ccccc21
MEASUREMENT_TARGET: SW480
GROUP_LABEL: 1

MOLECULE: C#C[C@]1(O)CC[C@H]2[C@@H]3CCc4cc(OC)ccc4[C@H]3CC[C@@]21C
MEASUREMENT_TARGET: SW480
GROUP_LABEL: -1

MOLECULE: N=C(N)NCCCCN
MEASUREMENT_TARGET: SW480
GROUP_LABEL: 1

MOLECULE: OCC(S)CS (centres undefined)
MEASUREMENT_TARGET: SW480
GROUP_LABEL: -1

MOLECULE: O=C1c2ccc(O)c(O)c2C(=O)c2c(O)ccc(O)c21
MEASUREMENT_TARGET: SW480
GROUP_LABEL: 1

MOLECULE: CC(=O)c1oc(C)c2c1C(=O)c1cccc(O)c1C2=O [Bhimamycin B]
MEASUREMENT_TARGET: SW480
GROUP_LABEL: 1

MOLECULE: CC(=O)O[C@@H]1C[C@H]2C(C)(C)C(=O)C=C[C@]2(C)[C@H]2CC[C@@]3(C)[C@H](c4ccoc4)OC(=O)[C@H]4O[C@]43[C@@]21C
MEASUREMENT_TARGET: SW480
GROUP_LABEL: 1

MOLECULE: C[C@]12CC[C@@H]3c4ccc(O)cc4CC[C@H]3[C@@H]1CCC2=O
MEASUREMENT_TARGET: SW480
GROUP_LABEL: 1

MOLECULE: Oc1cccc2nc3c(O)cccc3nc12 [1,6-Phenazinediol]
MEASUREMENT_TARGET: SW480
GROUP_LABEL: 1

MOLECULE: CC(C)c1c(O)c(-c2cc3c(c(C(C)C)c2O)CCC2C(C)(C)CCC[C@]32C)cc2c1CCC1C(C)(C)CCC[C@]21C (some centres undefined)
MEASUREMENT_TARGET: SW480
GROUP_LABEL: 1

MOLECULE: CC1=CCCC(C)=CCC(C)(C)C=CC1 [HUMULENE (alpha)]
MEASUREMENT_TARGET: SW480
GROUP_LABEL: 1

MOLECULE: CN(Cc1cc(Br)cc(Br)c1N)C1CCCCC1
MEASUREMENT_TARGET: SW480
GROUP_LABEL: -1

MOLECULE: CC1(C)O[C@@H]2C[C@H]3[C@@H]4C[C@H](F)C5=CC(=O)C=C[C@]5(C)[C@@]4(F)[C@@H](O)C[C@]3(C)[C@]2(C(=O)CO)O1
MEASUREMENT_TARGET: SW480
GROUP_LABEL: -1

MOLECULE: O=c1c(O)c(-c2ccc(O)c(O)c2)oc2cc(O)ccc12
MEASUREMENT_TARGET: SW480
GROUP_LABEL: -1

MOLECULE: CCSC(=N)N
MEASUREMENT_TARGET: SW480
GROUP_LABEL: -1

MOLECULE: CN1CCC[C@@H]1CCO[C@](C)(c1ccccc1)c1ccc(Cl)cc1
MEASUREMENT_TARGET: SW480
GROUP_LABEL: -1

MOLECULE: O=CN(O)CCCC(NC(=O)C(CO)NC(=O)C1COC(c2ccccc2O)=N1)C(=O)NCCC(=O)NC1CCCN(O)C1=O (centres undefined) [Oxachelin]
MEASUREMENT_TARGET: SW480
GROUP_LABEL: 1

MOLECULE: CCCCCC(=O)O[C@]1(C(C)=O)CC[C@H]2[C@@H]3CCC4=CC(=O)CC[C@]4(C)[C@H]3CC[C@@]21C
MEASUREMENT_TARGET: SW480
GROUP_LABEL: 1

MOLECULE: CC1(C)O[C@@H]2[C@@H](CO[C@@]3(COS(N)(=O)=O)OC(C)(C)O[C@@H]23)O1
MEASUREMENT_TARGET: SW480
GROUP_LABEL: -1

MOLECULE: CCN(CC)CCOC(=O)c1ccc(N)cc1
MEASUREMENT_TARGET: SW480
GROUP_LABEL: 1

MOLECULE: CC(C)C[C@@H]1NC(=O)[C@H](CCCN)NC(=O)[C@H](C(C)C)NC(=O)[C@H](Cc2ccc(O)cc2)N[C@@H](CCC(=O)O)C(=O)N[C@@H](CC(N)=O)C(=O)[C@@H](Cc2ccccc2)NC(=O)[C@H](Cc2ccccc2)NC(=O)[C@@H]2CCCN2C(=O)[C@@H](Cc2ccccc2)NC1=O
MEASUREMENT_TARGET: SW480
GROUP_LABEL: -1

----------
Measured TCF/Wnt firefly luciferase reporter signal, listed per entry.
Test system: SW480
TEST_NAME: TCF/Wnt firefly luciferase reporter signal relative to plate median (fraction of plate median); higher = higher Wnt reporter signal
ASSAY_CONDITIONS: 5 µM; treatment time 24 h; reporter: 7TFP
RECORDED_METRIC: TCF/Wnt firefly luciferase reporter signal

COMPOUND: O=C(O)C1CC([C@@H]2CCCCN2)CN2CCCCC12 (stereo partly specified)
MEASUREMENT_TARGET: SW480
DATA_VALUE: 1
--
COMPOUND: CCC(=O)O[C@H]1CC[C@H]2[C@@H]3CCc4cc(O)ccc4[C@H]3CC[C@]12C
MEASUREMENT_TARGET: SW480
DATA_VALUE: 0.994
--
COMPOUND: NCCc1c[nH]cn1
MEASUREMENT_TARGET: SW480
DATA_VALUE: 1.06
--
COMPOUND: Nc1ccn([C@@H]2O[C@H](CO)[C@@H](O)[C@@H]2O)c(=O)n1
MEASUREMENT_TARGET: SW480
DATA_VALUE: 0.968
--
COMPOUND: COc1ccc(C(=O)c2ccccc2)c(O)c1
MEASUREMENT_TARGET: SW480
DATA_VALUE: 1.05
--
COMPOUND: CC(C)(CO)C(O)C(=O)NCCCO (stereo unspecified)
MEASUREMENT_TARGET: SW480
DATA_VALUE: 0.978

Origin of measurements: the supplement of paper PMC6522484
